Here the recorded pKi is given for each entry.
TARGET OR TEST SYSTEM: UniProt:P15090
Sequence (P15090 whole entry): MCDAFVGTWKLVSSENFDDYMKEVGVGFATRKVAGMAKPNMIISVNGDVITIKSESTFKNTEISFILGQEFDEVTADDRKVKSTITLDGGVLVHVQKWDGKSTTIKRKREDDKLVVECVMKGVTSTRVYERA
pKi: −log10 of the molar value.
MEASURE NAME: pKi

- MOLECULE: "Nc1ccc(-c2cccc(Cl)c2-c2ccc3c(c2)CCO3)cc1C(=O)O"
  ASSAY RESULT: 6.37
- MOLECULE: "O=C(O)C1CCc2ccc(-c3cccc(Cl)c3OCC3CCCCC3)cc21 (stereo not given)"
  ASSAY RESULT: 5.74
- MOLECULE: "O=C(O)C1CCc2ccc(-c3cccc(Cl)c3-c3ccc4c(c3)OCO4)cc21 (stereo not given)"
  ASSAY RESULT: 6.10
- MOLECULE: "O=C(O)C1CCc2ccc(-c3cccc(Cl)c3OC3CCC3)cc21 (stereo not given)"
  ASSAY RESULT: 6.10
- MOLECULE: "O=C(O)Cc1cccc(-c2cccc(Cl)c2-c2ccc3c(c2)CCO3)c1"
  ASSAY RESULT: 6.46

* * *

EXPERIMENT: MRT in ICR mouse at 3 mg/kg, iv measured upto 24 hrs by LC-MS/MS analysis
Format: ADME, organism-based
TEST CONDITIONS: in vivo

- COMPOUND: "O=C(O)c1cc(-c2cccc(Cl)c2-c2ccc3c(c2)CCO3)ccc1C(F)(F)F"
  MRT (h): 4.04

* * *

EXPERIMENT: Half life in ICR mouse at 25 mg/kg, po measured upto 24 hrs by LC-MS/MS analysis
Assay type: ADME, organism-based
TEST CONDITIONS: in vivo
MEASURE NAME: half-life (h)

- COMPOUND: "O=C(O)c1cc(-c2cccc(Cl)c2-c2ccc3c(c2)CCO3)ccc1C(F)(F)F"
  MEASURE NAME: "half-life"
  ASSAY RESULT: 3.43

* * *

EXPERIMENT: Oral bioavailability in ICR mouse at 25 mg/kg measured upto 24 hrs by LC-MS/MS analysis
Format: ADME, organism-based
TEST CONDITIONS: in vivo

- COMPOUND: "O=C(O)c1cc(-c2cccc(Cl)c2-c2ccc3c(c2)CCO3)ccc1C(F)(F)F"
  bioavailability, %: 89.4

* * *

EXPERIMENT: Volume of distribution at steady state in ICR mouse at 3 mg/kg, iv measured upto 24 hrs by LC-MS/MS analysis
Type: ADME, organism-based
TEST CONDITIONS: in vivo, read-out: Vdss
MEASURE NAME: Vd (L/kg)

- COMPOUND: "O=C(O)c1cc(-c2cccc(Cl)c2-c2ccc3c(c2)CCO3)ccc1C(F)(F)F"
  ASSAY RESULT: 3.32

* * *

Tested on: THP-1
EXPERIMENT: Cytotoxicity against human THP-1 cells assessed as reduction in cell growth at 80 uM measured after 24 hrs by CCK-8 assay
Type: toxicity, cell-based
TEST CONDITIONS: thp-1, 24 h

- COMPOUND: "CCc1c(-c2ccccc2)c(-c2ccccc2)nn1-c1ccccc1-c1cccc(OCC(=O)O)c1"
  Activity: "Non-Toxic"
- COMPOUND: "O=C(O)c1cc(-c2cccc(Cl)c2-c2ccc3c(c2)CCO3)ccc1C(F)(F)F"
  Activity: "Non-Toxic"
- COMPOUND: "O=C(O)c1ccccc1Nc1cccc(Cl)c1-c1ccc2c(c1)CCO2"
  Activity: "Non-Toxic"
- COMPOUND: "O=C(O)C1CCc2ccc(-c3cccc(Cl)c3-c3ccc4c(c3)CCO4)cc21 (centres undefined)"
  Activity: "Non-Toxic"
